Value source: patent US20250163162A1

Biological target: T1, IL10Rα/IL2Rγ receptor (human) (UniProt Q13651)
T1 sequence (looked up) 1: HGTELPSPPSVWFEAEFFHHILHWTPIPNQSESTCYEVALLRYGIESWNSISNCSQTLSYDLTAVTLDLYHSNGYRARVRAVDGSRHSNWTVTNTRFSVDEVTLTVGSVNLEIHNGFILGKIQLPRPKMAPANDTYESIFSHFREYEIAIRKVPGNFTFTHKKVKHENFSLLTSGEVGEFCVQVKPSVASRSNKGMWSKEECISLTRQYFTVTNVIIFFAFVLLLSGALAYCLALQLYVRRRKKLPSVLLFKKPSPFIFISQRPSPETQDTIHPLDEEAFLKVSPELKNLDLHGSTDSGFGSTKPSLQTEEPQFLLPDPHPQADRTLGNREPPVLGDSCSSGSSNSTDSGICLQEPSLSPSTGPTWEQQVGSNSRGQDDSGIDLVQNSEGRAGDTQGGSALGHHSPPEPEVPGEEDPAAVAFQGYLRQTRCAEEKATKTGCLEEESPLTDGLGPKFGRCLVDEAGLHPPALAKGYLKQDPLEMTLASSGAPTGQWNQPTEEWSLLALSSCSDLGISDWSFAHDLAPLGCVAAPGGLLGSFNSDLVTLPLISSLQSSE
T1 sequence (looked up) 2: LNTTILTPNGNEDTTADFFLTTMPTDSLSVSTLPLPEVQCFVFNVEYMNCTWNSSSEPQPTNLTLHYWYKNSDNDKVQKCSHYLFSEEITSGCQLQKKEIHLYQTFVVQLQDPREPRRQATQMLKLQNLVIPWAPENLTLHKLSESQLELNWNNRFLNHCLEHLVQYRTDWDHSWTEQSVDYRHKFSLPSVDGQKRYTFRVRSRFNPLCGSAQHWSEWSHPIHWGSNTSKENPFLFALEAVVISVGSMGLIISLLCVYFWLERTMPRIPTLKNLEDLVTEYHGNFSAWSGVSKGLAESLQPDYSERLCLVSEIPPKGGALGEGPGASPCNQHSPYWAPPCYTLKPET
Assay: cell-based or functional assay
endpoint label: Granzyme A secretion, CD8 T cells, at 0.01 µM (pg/mL)
Answer with a number only, understood to be in pg/mL.

The binder listed as hIL10Ra_VHH14 - hIL2Rg_VHH19, linker GGSGGS, tag his (bispecific antibody, not shown: small tags and cut ends) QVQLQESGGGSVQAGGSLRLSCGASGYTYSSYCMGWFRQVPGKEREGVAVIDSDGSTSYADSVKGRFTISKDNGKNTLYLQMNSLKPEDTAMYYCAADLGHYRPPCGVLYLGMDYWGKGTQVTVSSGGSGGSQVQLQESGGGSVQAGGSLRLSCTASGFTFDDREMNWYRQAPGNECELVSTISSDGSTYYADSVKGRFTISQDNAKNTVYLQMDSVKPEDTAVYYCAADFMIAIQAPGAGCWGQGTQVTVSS has a reported Granzyme A secretion, CD8 T cells, at 0.01 µM of 25300
